- Tested on: PDGFRB
- PROTOCOL CONDITIONS: concentration: 1 μM, replicates: in singlicate; n = 1;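 note: KINOMEscan kinase panel screen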
PROPERTY MEASURED: %Inh
Put down the number, then write its unit next to it.

Returns the measured %Inh for the input compound. Input: CC(=O)Nc1nc2cnc(Nc3cc(NC(=O)c4cccc(C5(C#N)CC5)c4Cl)ccc3C)nc2s1 100%

Field request: %Inh | item: Cc1ccc(C(=O)Nc2ccc(Nc3ccnc4cc(-c5nccs5)ccc34)cc2O)cc1.Cl [GW494702] 74%

Give its %Inh value. Item: COc1cc(Nc2nccc(N3CCC(NC(=O)Nc4cccc(C(C)=O)c4)C3)n2)cc(OC)c1OC (stereo not shown) [GSK1379753] 77%

Return reported %Inh; argument: C[C@@H]1CC[C@@H](C(=O)Nc2ccccc2)CN1c1cc(-c2ccc3c(N)n[nH]c3c2)nc(N)n1 [GSK2286062] 23%

====

- Tested on: RSK1(Kin.Dom.2-C-terminal)
- Construct: gene RPS6KA1
- PROTOCOL CONDITIONS: concentration: 1 μM, replicates: in singlicate; n = 1
I'd appreciate it if you could supply %Inh values for the items below.
Give a bare numeral; the unit % is implied.

I'd like to know its %Inh. The molecule in question is c1ccc(Oc2ccc(Nc3ccnc4cc(-c5ccc(CNCCN6CCOCC6)o5)ccc34)cc2)nc1 [GW567145] 0

Report %Inh for COc1cccc(-c2ccc3c(NC(=O)C4CC4)n[nH]c3n2)c1 [SB-710903] please. 0

What value of measured %Inh is listed for COc1cc(Nc2nccc(N3CCC(NC(=O)c4cc5ccccc5s4)C3)n2)cc(OC)c1OC (stereo not drawn) [GSK1379760] ? 46

Quick one: %Inh for Cn1cc(-c2ccc3c(c2)CCN3C(=O)Cc2cccc(Cl)c2)c2c(N)ncnc21 [GSK2606590] ? 0

What does the record list as %Inh for Cl.Cl.NCC(C(=O)Nc1cc(Br)c(-c2ccnc3[nH]ccc23)s1)c1ccccc1 (stereo not drawn) [GSK1269851] ? 0

Item under review: COc1cc(Nc2nccc(-c3c(-c4cccc(NC(=O)c5c(F)cccc5F)c4)nn4ccccc34)n2)cc(OC)c1OC [GSK323521] . Reported %Inh? 14

Would you kindly share the measured %Inh for O=C(Nc1cccc(-c2nn3ccccc3c2-c2ccnc(Nc3cccc(C(F)(F)F)c3)n2)c1)c1c(F)cccc1F [GSK292658] ? 0

What value of %Inh has been recorded for this entry: NCCCC(NC(=O)c1cc(Br)c(-c2ccnc3[nH]ccc23)s1)c1ccccc1.O=C(O)C(F)(F)F.O=C(O)C(F)(F)F (stereo not drawn) [GSK1287544] 0

Value lookup for %Inh; key = Cn1cc(-c2ccc3c(c2)CCN3C(=O)Cc2cccc(F)c2)c2c(N)ncnc21 [GSK2603358] 3

Request the reported %Inh associated with COc1ccc(-c2coc3ccc(-c4nnc(SCc5ccc(OC)c(C(F)(F)F)c5)o4)cc23)cc1 17

Item under review: CNC(=O)c1ccccc1Nc1nc(Nc2ccc(N3CCOCC3)cc2)ncc1Cl.Cl [GSK1576028] . Reported %Inh? 54

For c1ccc(-c2n[nH]cc2Nc2ccnc3ccccc23)nc1 [GW694077] , what is its reported %Inh? 16

Looking for the measured %Inh of CC(=O)Nc1nc2cnc(Nc3cc(NC(=O)c4cccc(C5(C#N)CC5)c4Cl)ccc3C)nc2s1 , can you help? 25

Dear colleague, I am looking for the recorded %Inh of the following molecule: O=C(Nc1n[nH]c2nc(-c3ccc(O)cc3)ccc12)C1CC1 [SB-710363] 64

Any idea what its %Inh is? The molecule is Cl.c1ccc(-c2ccc3c(Nc4ccc5[nH]ncc5c4)ccnc3c2)nc1 [GW440137] 6

I'd like to know its %Inh. The molecule in question is Oc1cc(Nc2ccnc3cc(I)ccc23)ccc1F [GW552771] 29

Quick one: %Inh for CC(C)c1nc(-c2cccc(NS(=O)(=O)c3c(F)cccc3F)c2F)c(-c2ccnc(Nc3ccc(N4CCOCC4)nc3)n2)s1 [GSK2008607] ? 12

Look at this molecule and give its reported %Inh. COc1ccc(Nc2nccc(NCCNC(=O)c3cc4ccccc4s3)n2)cc1 [GSK1379896] 0

====

Please provide measured %Inh for the entries that follow.
- Test system: PAK3
- PROTOCOL CONDITIONS: concentration: 1 μM, replicates: in singlicate; n = 1
Hi! Could you send only the number? It should be in %, unit omitted.

Given the entry O=C(Nc1n[nH]c2nc(-c3ccc(O)cc3)ccc12)C1CC1 , report its measured %Inh. 0

Find the recorded %Inh belonging to O=C(Nc1ccccc1F)NC1CCN(c2ccnc(Nc3ccc(F)cc3)n2)CC1 and report it. 0

Any idea what its %Inh is? The compound is Cl.NC(=O)c1cccc(Nc2nccc(Nc3ccc(Oc4c(Cl)cccc4Cl)c(Cl)c3)n2)c1 72

# get_value(readout='%Inh', item= Cc1ccc(S(=O)(=O)Nc2ccc(Nc3nccc(Nc4cccc5[nH]ncc45)n3)cc2)cc1 ) 35

Bench note: what %Inh did COc1cc(Nc2nccc(-c3c(-c4cccc(NC(=O)c5c(F)cccc5F)c4)nn4ccccc34)n2)cc(OC)c1OC show? 44

# get_value(readout='%Inh', item= COc1cc(Nc2ncc3c(C)nc(-c4cc5ccccc5[nH]4)n3n2)cc(OC)c1OC ) 69

====

- Test system: PDPK1
- PROTOCOL CONDITIONS: concentration: 1 μM, replicates: in singlicate; n = 1
PROPERTY MEASURED: %Inh (%)
I only need the number, in %, no unit after it.

What %Inh value was documented for this molecule, CCc1ccc(-c2ccc3c(c2)-c2c(cnn2C)S(=O)(=O)N3C)cc1 ? 4

Recorded %Inh for CNC(=O)c1ccccc1Nc1nc(Nc2ccc(N3CCOCC3)cc2)ncc1Cl.Cl [GSK1576028] , please? 42

What does the record list as %Inh for O=C(Nc1n[nH]c2cc(-c3ccoc3)ccc12)C1CC1 [SB-738481] ? 0

Please look up its %Inh: Oc1cc(Nc2ccnc3cc(I)ccc23)ccc1F [GW552771] 0

Consider the molecule Fc1ccc(-c2ncn(C3CCNCC3)c2-c2ccnc(Oc3ccc(-c4ccccc4)cc3)n2)cc1 [SB-245391] and give its measured %Inh. 21

====

- Test system: TRKA
- Construct: gene NTRK1
- PROTOCOL CONDITIONS: concentration: 1 μM, replicates: in singlicate; n = 1
Give %Inh for every item shown.
Report as a plain number; the unit % is understood.

Find the measured %Inh: item Nc1ncc(-c2cccnc2)c2scc(-c3ccc4c(c3)CCN4C(=O)Cc3ccccc3)c12 [GSK683281] , target or system TRKA. 22

Query the reported %Inh for TRKA; item: Nc1ncnc2c1nc(-c1ccccc1)n2-c1ccccc1 [SKF-97293] 37

Notebook entry, TRKA assay: %Inh of O=C(Nc1cccc(-c2nn3ccccc3c2-c2ccnc(Nc3cccc(F)c3)n2)c1)c1c(F)ccc(F)c1Cl [GSK357952] = ? 11

Give %Inh (TRKA) of the following compound: c1ccc(-c2n[nH]cc2Nc2ccnc3ccccc23)nc1 [GW694077] 74

Under TRKA: %Inh value of Nc1ncc(-c2ccc3nccc(-c4ccncc4)c3c2)cc1S(=O)(=O)N1CCOCC1 [GSK1627798] ? 90.2

====

- Tested on: TYK2(JH1domain-catalytic)
- PROTOCOL CONDITIONS: concentration: 1 μM, replicates: in singlicate; n = 1
Classification field: enter 1.0 for %Inh values not below 30%, 0.0 for values below it.

Determine whether measured %Inh meets or exceeds 30% for Fc1ccc(-c2ncn(C3CCNCC3)c2-c2ccnc(Oc3ccc(-c4ccccc4)cc3)n2)cc1 1.0

Exam item: decide whether the reported %Inh for COc1cc2c(cc1OCCN1CCNCC1)ncc1c3ccc(C#N)cc3[nH]c21 is at least 30%. 1.0

Determine whether this molecule has %Inh no lower than 30%: CCS(=O)(=O)c1ccc(OC)c(Nc2nccc(-c3c(-c4cccc(NC(=O)c5c(F)cccc5F)c4)nn4ncccc34)n2)c1 0.0

Could you tell me if the measured %Inh of CNC(=O)c1ccccc1Nc1nc(Nc2ccc(N3CCOCC3)cc2)ncc1Cl.Cl reaches 30% or more? 1.0

State whether the measured %Inh reaches 30%, counting equality as reaching it, for CCn1c(-c2nonc2N)nc2c(C#CC(C)(C)O)nc(OC[C@H](N)c3ccccc3)cc21 0.0

====

- Test system: IKK-epsilon
- Construct: gene IKBKE
- PROTOCOL CONDITIONS: concentration: 1 μM, replicates: in singlicate; n = 1
Please respond with reported %Inh for every item in the list.
# unit: % | format: bare number

Record request: %Inh value, item C[C@@H](Oc1cc(-n2cnc3cc(-c4ccnc(NCCS(C)(=O)=O)c4)ccc32)sc1C(N)=O)c1ccccc1Cl 0

Recorded %Inh of Fc1ccc(-c2ncn(C3CCNCC3)c2-c2ccnc(Oc3ccc(-c4ccccc4)cc3)n2)cc1 , please. 0

I am curious: what %Inh value has been reported for CCS(=O)(=O)c1ccc(OC)c(Nc2nccc(-c3c(-c4cccc(NC(=O)c5c(F)cccc5F)c4)nn4ncccc34)n2)c1 ? 13

Fill in the blank: the reported %Inh of Nc1n[nH]c2cnc(-c3ccccc3)cc12 is ____. 13

Fill in the blank: the reported %Inh of COc1cc(Nc2nccc(-c3c(-c4cccc(NC(=O)c5c(F)cccc5F)c4)nn4ccccc34)n2)cc(OC)c1OC is ____. 65

Need %Inh, item Cc1cccc(Nc2nc(N[C@H]3CCNC3)ncc2C(N)=O)c1.Cl 13

Given Cn1cc(-c2ccc3c(c2)CCN3C(=O)Cc2cccc(Cl)c2)c2c(N)ncnc21 , state its recorded %Inh. 78

Which %Inh is reported for this molecule? COc1ccc(Nc2nccc(NCCNC(=O)c3cc4ccccc4s3)n2)cc1 0
